# system.tested: Vasopressin V1a receptor (Homo sapiens, UniProt P37288)
# Sequence (P37288 whole entry): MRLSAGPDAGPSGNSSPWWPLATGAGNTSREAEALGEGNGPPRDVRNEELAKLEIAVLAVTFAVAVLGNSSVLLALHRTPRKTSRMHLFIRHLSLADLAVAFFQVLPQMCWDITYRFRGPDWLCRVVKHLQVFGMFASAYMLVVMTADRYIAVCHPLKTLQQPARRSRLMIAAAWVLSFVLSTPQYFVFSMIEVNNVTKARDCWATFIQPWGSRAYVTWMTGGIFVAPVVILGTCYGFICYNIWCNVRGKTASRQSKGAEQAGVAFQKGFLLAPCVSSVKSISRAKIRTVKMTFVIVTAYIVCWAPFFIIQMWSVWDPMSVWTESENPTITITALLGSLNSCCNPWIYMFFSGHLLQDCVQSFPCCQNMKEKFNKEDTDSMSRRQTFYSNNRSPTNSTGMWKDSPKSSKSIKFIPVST
# test.protocol: Displacement of [3H]AVP from human vasopressin V1a receptor expressed in CHO cells
# Format: cell-based
# measurement.setup: read-out: Ki
pKi: −log10 of the molar value.
measure: pKi

Field: example entries. Status: answers known.
>>> reported_value("Cc1cc(C(=O)N2Cc3cnn(C)c3Nc3ccccc32)ccc1CNC(=O)N(C)C")
6.77
>>> reported_value("Cc1cc(C(=O)N2Cc3cnn(C)c3Nc3ccccc32)ccc1CNC(=O)N1CCC[C@H]1C(=S)N1CCCN(C)CC1")
6.48
>>> reported_value("Cc1ccn(-c2ccc(C(=O)N3Cc4cnn(C)c4Nc4ccccc43)cc2C)n1")
7.74
>>> reported_value("Cc1cc(C(=O)N2Cc3cnn(C)c3Nc3ccccc32)ccc1CNC(=O)N1CCCC1")
6.78
>>> reported_value("Cc1ccn(-c2ccc(C(=O)N3Cc4cccn4Cc4ccccc43)c(Cl)c2)n1")
6.46
>>> reported_value("Cc1cc(C(=O)N2Cc3cnn(C)c3Nc3ccccc32)ccc1NC(=O)c1ccccc1-c1ccccc1")
7.43

[A] O=C(Nc1ccc(C(=O)N2CCCCc3ccccc32)cc1)c1ccccc1-c1ccccc1
[B] Cc1ccn(-c2ccc(C(=O)N3Cc4cnn(C)c4Nc4ccccc43)c(Cl)c2)n1
Which gives the smaller pKi number: A or B ? Mark your selection by writing its label. B
